target: human GLP-1 receptor (human, UniProt P43220 24-463); test: cell-based or functional assay
Sequence (P43220 24-463): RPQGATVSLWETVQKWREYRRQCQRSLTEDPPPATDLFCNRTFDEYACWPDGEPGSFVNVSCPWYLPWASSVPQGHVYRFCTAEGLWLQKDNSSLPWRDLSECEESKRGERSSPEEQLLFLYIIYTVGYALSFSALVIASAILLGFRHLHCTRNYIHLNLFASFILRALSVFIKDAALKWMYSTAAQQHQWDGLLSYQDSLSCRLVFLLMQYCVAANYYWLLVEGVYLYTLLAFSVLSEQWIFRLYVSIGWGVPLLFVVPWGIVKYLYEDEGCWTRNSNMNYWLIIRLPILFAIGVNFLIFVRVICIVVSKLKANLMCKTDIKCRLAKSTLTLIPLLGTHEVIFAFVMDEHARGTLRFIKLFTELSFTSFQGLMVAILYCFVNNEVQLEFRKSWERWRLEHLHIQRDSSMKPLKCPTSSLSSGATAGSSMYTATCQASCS
*1 amine or outer side, *2 acyl side, *3 side chain or, on linkers, in order; H or OH if unused. Where no end group is shown, it is not given here. Side-chain parts run from the residue outwards. [ ]: non-standard residue; d: D form. The star is where a group is joined. C20 diacid = O=C(O)CCCCCCCCCCCCCCCCCCC(=O)*; C18 diacid = O=C(O)CCCCCCCCCCCCCCCCC(=O)*; C16 diacid = O=C(O)CCCCCCCCCCCCCCC(=O)*; γGlu = O=C(O)[C@H](CCC(=O)[*:2])N[*:1]; Desaminohistidyl = O=C(CCc1c[nH]cn1)*; βAsp = O=C(O)[C@H](CC(=O)[*:2])N[*:1]; Dap = NC[C@H](N)C(=O)O; AEEA = NCCOCCOCC(=O)O; Aib = CC(C)(N)C(=O)O; Inp = O=C(O)C1CCNCC1
quantity.measured: Potency [EC50/nM], cAMP formation (nM)

Consider the following illustrative entries.
{"columns": ["binder", "Potency [EC50/nM], cAMP formation (nM)"],
 "data": [
  ["H[Aib]EGTFTSDVSSYLEEQAVREFIAK([AEEA-AEEA-γGlu-C18 diacid])LV[Dap](2‑(bis-carboxymethylamino)acetyl)-NH2 (GLP-1(7-34) = residues 1-28 of the entry)", 0.34],
  ["H[Aib]EGTFTSDVSSYLEEQAAREFIEWLVKGK([AEEA-AEEA-C18 diacid])GE-NH2", 0.22],
  ["[Desaminohistidyl]AEGTFTSDVSSYLEEQAAREFIEWLVRGK([AEEA-AEEA-γGlu-C16 diacid])GEK", 0.21],
  ["H[Aib]EGTFTSDVSSYLEEQAVREFIAK([AEEA-AEEA-γGlu-C18 diacid])LVRRRR", 1.27],
  ["H[Aib]EGTFTSDVSSYLEEQAAREFIAK([AEEA-AEEA-βAsp-Inp-C20 diacid])LVRGRG", 0.18],
  ["XAEGTFTSDVSSYLEEQAAREXIAWLVRGRK (desamino-histidine at 7; m-CF3-phenylalanine at 28; residue 37 acylated at N-epsilon with the side chain given in the name; C-terminal amide)", 0.35]
]}

(A) H[Aib]EGTFTSDVSSYLEEQAAREFIAWLVR[Aib]RK([AEEA-AEEA-γGlu-C18 diacid])
(B) [Desaminohistidyl]AEGTFTSDVSSYLEEQAAREFIEWLVRGRGEK([AEEA-AEEA-γGlu-C18 diacid]) [[desaminoHis7, Glu22, Arg26, Glu30, …]
q: // max by Potency [EC50/nM], cAMP formation over [ A , B ] # reply format: chosen label
a: A

Reference for the values: patent US20110082079A1
